system: T1, EsCas13d, nuclease-dead (Eubacterium siraeum, UniProt B0MS50, R295A;H300A;R849A;H854A)
T1 sequence: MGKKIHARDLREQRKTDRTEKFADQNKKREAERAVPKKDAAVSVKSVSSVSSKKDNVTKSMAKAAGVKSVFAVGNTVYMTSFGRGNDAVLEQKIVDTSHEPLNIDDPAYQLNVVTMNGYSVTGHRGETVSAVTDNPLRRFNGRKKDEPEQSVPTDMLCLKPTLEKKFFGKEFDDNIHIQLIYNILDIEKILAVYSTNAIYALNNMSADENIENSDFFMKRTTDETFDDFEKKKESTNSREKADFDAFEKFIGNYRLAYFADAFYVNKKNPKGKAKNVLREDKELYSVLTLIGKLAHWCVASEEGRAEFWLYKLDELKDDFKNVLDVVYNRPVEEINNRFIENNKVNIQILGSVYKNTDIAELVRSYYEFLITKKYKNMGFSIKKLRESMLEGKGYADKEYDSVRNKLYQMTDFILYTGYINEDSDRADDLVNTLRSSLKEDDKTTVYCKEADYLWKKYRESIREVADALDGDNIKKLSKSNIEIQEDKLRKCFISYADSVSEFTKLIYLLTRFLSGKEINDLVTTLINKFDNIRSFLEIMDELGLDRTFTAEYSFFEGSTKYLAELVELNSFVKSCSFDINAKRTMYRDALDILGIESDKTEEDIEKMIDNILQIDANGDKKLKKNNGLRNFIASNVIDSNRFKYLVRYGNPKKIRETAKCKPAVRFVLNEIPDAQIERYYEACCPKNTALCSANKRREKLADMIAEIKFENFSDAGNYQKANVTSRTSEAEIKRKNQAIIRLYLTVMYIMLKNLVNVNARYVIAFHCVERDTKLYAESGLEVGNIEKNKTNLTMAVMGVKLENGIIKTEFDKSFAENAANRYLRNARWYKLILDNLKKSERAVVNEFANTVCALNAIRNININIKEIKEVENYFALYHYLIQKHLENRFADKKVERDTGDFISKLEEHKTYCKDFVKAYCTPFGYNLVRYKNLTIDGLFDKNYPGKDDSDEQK
method notes: crRNA (strand 1, pre-loaded); Mg2+; 40 mM Tris-HCl pH 7.5, 150 mM NaCl, 6 mM MgCl2, 1 mM DTT, 0.1% Tween-20, 0.2 mg/ml BSA; 25 C; 10 min per concentration, then washed
condition label: tags: His6-TwinStrep-SUMO cleaved; N-terminal SNAP kept (SNAP-Surface 488); label: 3' end held by stalled T7 RNA polymerase

binder	Kd
target 2 MT 5'PFS AGC 3'PFS CAA (mixed) RNA 1: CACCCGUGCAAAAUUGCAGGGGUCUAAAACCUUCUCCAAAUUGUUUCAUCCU RNA 2: GGGAAUGGAUCCACAUCUACGAAUUCAGCAGGAUGAAACAAUUUGGAGAAGCAAAGAUCGGAAGAGCACACGU	7 nM
target 1 insC 3' of 14,insG 3' of 14 (mixed) RNA 1: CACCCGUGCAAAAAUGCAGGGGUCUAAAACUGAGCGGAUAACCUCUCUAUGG RNA 2: GGGAAUGGAUCCACAUCUACGAAUUCGUACCAUAGAGACGGGUUAUCCGCUCACCGAGAUCGGAAGAGCACACGU	50 nM
target 1 MT 5'PFS CCA 3'PFS AUU (mixed) RNA 1: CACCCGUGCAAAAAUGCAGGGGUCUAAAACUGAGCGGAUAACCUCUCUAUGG RNA 2: GGGAAUGGAUCCACAUCUACGAAUUCCCACCAUAGAGAGGUUAUCCGCUCAAUUAGAUCGGAAGAGCACACGU	2.62 nM
target 1 MT 5'PFS UAA 3'PFS AAG (mixed) RNA 1: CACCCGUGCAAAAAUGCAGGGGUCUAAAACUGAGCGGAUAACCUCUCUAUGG RNA 2: GGGAAUGGAUCCACAUCUACGAAUUCUAACCAUAGAGAGGUUAUCCGCUCAAAGAGAUCGGAAGAGCACACGU	66 nM
